- tested.on: Oatp1b2 (Mus musculus)
- Sequence (Q9JJL3 1-689): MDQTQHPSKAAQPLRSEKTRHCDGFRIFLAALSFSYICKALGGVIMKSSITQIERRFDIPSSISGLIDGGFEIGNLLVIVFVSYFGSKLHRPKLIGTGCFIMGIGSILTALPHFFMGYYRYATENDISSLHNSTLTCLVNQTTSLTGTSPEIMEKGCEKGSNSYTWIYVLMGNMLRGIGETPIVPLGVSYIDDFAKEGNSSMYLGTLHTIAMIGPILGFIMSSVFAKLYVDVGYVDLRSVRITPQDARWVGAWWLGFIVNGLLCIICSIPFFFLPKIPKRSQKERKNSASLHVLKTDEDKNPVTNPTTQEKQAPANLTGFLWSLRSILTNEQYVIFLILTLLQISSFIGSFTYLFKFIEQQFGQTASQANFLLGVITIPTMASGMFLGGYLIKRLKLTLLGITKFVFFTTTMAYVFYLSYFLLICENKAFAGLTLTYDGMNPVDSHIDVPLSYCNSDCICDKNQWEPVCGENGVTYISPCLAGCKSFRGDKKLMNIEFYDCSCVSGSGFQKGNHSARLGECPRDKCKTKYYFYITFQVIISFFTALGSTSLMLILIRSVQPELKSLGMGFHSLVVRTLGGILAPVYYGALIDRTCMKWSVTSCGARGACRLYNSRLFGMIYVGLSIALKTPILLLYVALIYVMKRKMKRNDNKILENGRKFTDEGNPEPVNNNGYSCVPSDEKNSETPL
- assay.summary: Untargeted metabolomics of plasma from untreated wild-type and Oatp1b2(−/−) mice
- conditions: plasma of untreated Oatp1b2-deficient mice; raw area counts rescaled to median = 1
Structures can show the parent of a compound that is named as a salt.

| molecule | Mean value KO |
| --- | --- |
| O=S(=O)(O)Oc1ccc(O)cc1 [hydroquinone sulfate] | 1.32 |
| CCCCCCCC/C=C\CCCCCCCC(=O)O[C@H](CC(=O)[O-])C[N+](C)(C)C | 1.40 |
| O=C(O)CNC(=O)CCc1ccccc1 | 1.58 |
| Nc1ncnc2c1ncn2C1OC(COP(=O)(O)O)C(O)C1O (stereo not shown) [adenosine 5'-monophosphate (AMP)] | 1.04 |
| NCCS(=O)O | 1.14 |
| Cc1cn([C@H]2C[C@H](O)[C@@H](CO)O2)c(=O)nc1N | 1.56 |
| NCCOP(=O)(O)OCC(O)CO (stereo not shown) | 1.31 |
| CCCCC/C=C\C/C=C\C/C=C\C/C=C\CCCC(=O)OC[C@@H](O)COP(=O)([O-])OCC[N+](C)(C)C | 1.27 |
| CCCCCC/C=C\CCCCCCCC(=O)O[C@H](CO)COP(=O)([O-])OCC[N+](C)(C)C | 1.36 |
| CCCCC/C=C\C/C=C\C/C=C\C/C=C\CCCC(=O)O[C@H](COC(=O)CCCCCCC/C=C\CCCCCCCC)COP(=O)(O)OC1C(O)C(O)C(O)C(O)C1O (stereo partly shown) | 1.37 |
| CSC[C@H](NC(=O)CC[C@H](N)C(=O)O)C(=O)NCC(=O)O | 1.11 |
| CCCCCCCCCCCCCCCC(=O)OC[C@@H](O)COP(=O)(O)OCCN | 1.33 |
| OC[C@H]1O[C@@H](n2cnc3c(O)ncnc32)[C@H](O)[C@@H]1O | 1.49 |
| C[N+](C)(C)CCCCC(=O)[O-] [N,N,N-trimethyl-5-aminovalerate] | 2.06 |
| C[C@H](CCC(=O)O)[C@H]1CC[C@H]2[C@@H]3[C@H](O)[C@H](O)[C@@H]4C[C@H](O)CC[C@]4(C)[C@H]3CC[C@]12C [hyocholate] | 1.41 |
| CCCCC/C=C\C/C=C\CCCCCCCC(=O)O[C@H](CC(=O)[O-])C[N+](C)(C)C | 1.36 |
